Compiled from multiple publications: IC50 readings for Dual specificity protein kinase TTK (Homo sapiens).
property: IC50 (µM)

Consider the worked cases shown below.
COc1cc(N2CCN(S(C)(=O)=O)CC2)ccc1Nc1ncc2ccn(C3CCCCC3)c2n1 : 0.02
CC[C@H](CO)Nc1cc(NCC2CCOCC2)n2ncc(-c3ccc(C(=O)NC4CC4)c(C)c3)c2n1 : 0.021

(P) CN1CCN(c2ccc(Nc3nc(-n4nc(N)c5ccccc54)c4cc[nH]c4n3)cc2F)CC1
(Q) CCc1cccc(CC)c1NC(=O)c1nn(C)c2c1CCc1cnc(Nc3ccc(C(=O)N4CCCN(C)CC4)cc3OC)nc1-2
(R) CCOc1cc(-c2nncn2C)ccc1Nc1ncc2cc(C)nc(N3CC(O)(CC)C3)c2n1
## Task Please put the entries in order of rising IC50. Please list each label once, in the requested order.
## Result R, Q, P
(R: 0.004 µM, Q: 0.021 µM, P: 0.035 µM)

---

Compiled from multiple publications: pIC50 readings for Dual specificity protein kinase TTK (Homo sapiens).
# target_under_test: Dual specificity protein kinase TTK (Homo sapiens)
# Sequence (P33981 whole entry): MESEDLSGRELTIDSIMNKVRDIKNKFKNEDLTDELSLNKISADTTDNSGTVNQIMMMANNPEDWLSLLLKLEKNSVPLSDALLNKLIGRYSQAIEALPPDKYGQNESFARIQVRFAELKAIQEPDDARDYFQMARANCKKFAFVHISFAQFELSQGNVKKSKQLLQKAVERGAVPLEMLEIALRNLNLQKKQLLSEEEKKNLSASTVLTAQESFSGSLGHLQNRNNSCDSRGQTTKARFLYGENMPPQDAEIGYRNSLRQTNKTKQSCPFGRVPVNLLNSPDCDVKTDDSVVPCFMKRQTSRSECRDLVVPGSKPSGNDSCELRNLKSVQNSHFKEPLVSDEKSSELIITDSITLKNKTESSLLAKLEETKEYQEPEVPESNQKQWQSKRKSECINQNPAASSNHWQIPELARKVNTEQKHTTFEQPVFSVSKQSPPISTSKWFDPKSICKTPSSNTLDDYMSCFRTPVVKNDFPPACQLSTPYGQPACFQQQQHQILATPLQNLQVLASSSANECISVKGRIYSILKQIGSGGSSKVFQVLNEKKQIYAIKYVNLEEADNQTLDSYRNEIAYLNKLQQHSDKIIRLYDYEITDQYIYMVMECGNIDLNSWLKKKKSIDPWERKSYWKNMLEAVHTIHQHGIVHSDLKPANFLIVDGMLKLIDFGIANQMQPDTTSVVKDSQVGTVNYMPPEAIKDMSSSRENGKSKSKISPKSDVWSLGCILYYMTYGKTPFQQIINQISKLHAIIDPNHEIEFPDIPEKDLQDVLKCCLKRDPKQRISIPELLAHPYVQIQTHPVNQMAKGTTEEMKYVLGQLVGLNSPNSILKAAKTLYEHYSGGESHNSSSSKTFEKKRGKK
pIC50: −log10 of the molar value.
property: pIC50

O=C(NC1CC1)c1ccc(-c2cnn3c(NCC4CCOCC4)nc(NC4CCCC4)nc23)cc1F : 8.15
COc1ccccc1Nc1nc(-n2nc(N)c3ccccc32)c2cc[nH]c2n1 : 7.29
CN1CCN(c2ccc(Nc3nc(-c4cnn(C)c4)c4cc[nH]c4n3)cc2)CC1 : 7.17
COc1cc(OC2CCN(C)CC2)ccc1Nc1nccc(-c2c[nH]c3cnccc23)n1 : 7.70

(1) COc1cc(N2CCN(S(C)(=O)=O)CC2)ccc1Nc1ncc(C)c(NC2CCCCC2)n1
(2) C[C@@H]1CN(c2cc(-c3n[nH]c4ccc(OC5(C)CC5)cc34)ncn2)C[C@H](C)O1
## Task Name the one with the greater pIC50 value, either 1 or 2 as given. Write the label of whichever entry you select.
## Result 1
(1: 7.55, 2: 6.03)

---

# target_under_test: UniProt:P33981
# Sequence (P33981 whole entry): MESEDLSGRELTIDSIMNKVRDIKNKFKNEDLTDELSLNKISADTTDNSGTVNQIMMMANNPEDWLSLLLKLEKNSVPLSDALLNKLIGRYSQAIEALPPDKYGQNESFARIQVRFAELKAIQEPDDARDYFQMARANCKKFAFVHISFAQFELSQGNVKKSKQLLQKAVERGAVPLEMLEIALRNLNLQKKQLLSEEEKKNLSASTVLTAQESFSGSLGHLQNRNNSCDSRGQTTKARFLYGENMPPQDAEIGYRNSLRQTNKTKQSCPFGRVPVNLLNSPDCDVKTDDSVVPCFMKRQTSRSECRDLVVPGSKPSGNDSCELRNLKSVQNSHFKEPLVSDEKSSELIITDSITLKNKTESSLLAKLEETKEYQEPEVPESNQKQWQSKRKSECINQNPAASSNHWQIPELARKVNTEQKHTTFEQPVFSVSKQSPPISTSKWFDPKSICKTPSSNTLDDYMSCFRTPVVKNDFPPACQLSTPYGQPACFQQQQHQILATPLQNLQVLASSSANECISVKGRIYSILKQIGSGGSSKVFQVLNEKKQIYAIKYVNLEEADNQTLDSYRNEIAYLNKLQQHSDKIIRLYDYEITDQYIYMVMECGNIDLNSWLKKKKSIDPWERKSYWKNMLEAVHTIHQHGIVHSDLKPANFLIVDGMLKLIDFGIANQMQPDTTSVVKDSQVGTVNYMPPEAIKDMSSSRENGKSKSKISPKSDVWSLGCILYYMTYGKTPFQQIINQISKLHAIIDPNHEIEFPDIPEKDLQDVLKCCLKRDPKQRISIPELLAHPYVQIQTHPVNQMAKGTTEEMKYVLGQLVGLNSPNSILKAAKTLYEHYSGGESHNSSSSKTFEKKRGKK
Compiled from multiple publications: IC50 readings for UniProt:P33981.
property: IC50 (µM)

(a) CN1CCC(c2ccc(Nc3ncc4c(n3)-n3ccc(C(N)=O)c3CC4)cc2)CC1
(b) Cc1cc(-c2cnn3c(NCC4CCOCC4)cc(N[C@H]4CCC[C@H]4O)nc23)ccc1C(=O)NC1CC1
## Task Identify the item whose IC50 is the smaller number: a or b Write the label of whichever entry you select.
## Result b

(I) CCCSc1cn2c(-c3ccc(C(=O)NC4CC4)c(C)c3)cnc2c(NCC(C)(C)O)n1
(II) COCCNc1nc(Oc2ccccc2)nc2c(-c3ccc(C(=O)NC4CC4)cc3)cnn12
(III) CNC(=O)c1cc(Oc2ccc(NC(=O)Nc3cc(C(C)(C)C)nn3-c3ccc4ncccc4c3)c(F)c2)ccn1
## Task Please put the entries in order of rising IC50. Please list each label once, in the requested order.
## Result II, I, III

---

# target_under_test: Dual specificity protein kinase TTK (Homo sapiens)
# Sequence (P33981 whole entry): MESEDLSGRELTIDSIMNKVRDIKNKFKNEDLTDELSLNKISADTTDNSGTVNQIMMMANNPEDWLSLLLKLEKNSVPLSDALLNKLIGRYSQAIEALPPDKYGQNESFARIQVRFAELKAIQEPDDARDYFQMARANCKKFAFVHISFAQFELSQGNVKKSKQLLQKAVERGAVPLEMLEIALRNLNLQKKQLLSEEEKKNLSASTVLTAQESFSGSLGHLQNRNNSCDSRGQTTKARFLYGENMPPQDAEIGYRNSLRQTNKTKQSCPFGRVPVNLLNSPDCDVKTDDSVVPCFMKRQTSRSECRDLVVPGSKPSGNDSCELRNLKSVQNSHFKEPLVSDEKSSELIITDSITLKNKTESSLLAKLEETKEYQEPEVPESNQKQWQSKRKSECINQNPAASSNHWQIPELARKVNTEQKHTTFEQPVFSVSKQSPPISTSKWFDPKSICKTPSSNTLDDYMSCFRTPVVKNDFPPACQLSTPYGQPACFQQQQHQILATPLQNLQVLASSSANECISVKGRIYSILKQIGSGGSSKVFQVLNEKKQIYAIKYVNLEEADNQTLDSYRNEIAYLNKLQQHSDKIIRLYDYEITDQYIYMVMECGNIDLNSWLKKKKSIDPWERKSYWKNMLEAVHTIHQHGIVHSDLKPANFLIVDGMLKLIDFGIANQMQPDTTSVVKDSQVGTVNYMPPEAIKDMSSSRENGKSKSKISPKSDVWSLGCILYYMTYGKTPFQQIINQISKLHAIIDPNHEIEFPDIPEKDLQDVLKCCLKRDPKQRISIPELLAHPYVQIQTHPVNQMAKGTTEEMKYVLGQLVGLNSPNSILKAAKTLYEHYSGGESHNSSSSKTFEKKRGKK
Compiled from multiple publications: IC50 readings for Dual specificity protein kinase TTK (Homo sapiens).
property: IC50 (nM)

Consider the worked cases shown below.
O=C(NC1CC1)c1ccc(-c2cnn3c(NCC4CCOCC4)nc(Oc4ccccc4)nc23)cc1 : 4.9
Cc1cc(N2CCOCC2)ccc1Nc1nc(NC2CCCCC2)c2c(C#N)c[nH]c2n1 : 6.3

(a) COc1cc(N2CCCC2=O)ccc1Nc1nc(NC2CCCCC2)c2c(C#N)c[nH]c2n1
(b) CSc1nc(-c2ccccc2)cn2c(-c3ccc(C(=O)NC4CC4)cc3)cnc12
## Task Name the one with the greater IC50 value, either a or b as given. Write the label of whichever entry you select.
## Result b
(b: 25.7 nM, a: 6.4 nM)
